# TARGET: Polyunsaturated fatty acid 5-lipoxygenase (Homo sapiens)
# ASSAY PROCEDURE: Inhibition of 5-lipoxygenase in S100 supernatant assessed as inhibition of (5(S)-hydroperoxy-6-trans-8,11,14-cis-eicosatetraenoic acid production preincubated for 15 mins measured after 10 mins by HPLC method
Give IC50 for every item shown.
One number for each entry, in nM.

// worked examples, IC50 included
COc1ccc(/C=C2\SC(c3ccc(C)cc3)=NC2=O)c(OC)c1OC : 400
COc1ccc(/C=C2\SC(c3ccccc3)=NC2=O)cc1 : 150
Cc1ccc(C2=NC(=O)/C(=C/C=C/c3ccccc3)S2)cc1 : 230

Would you mind listing IC50 for each of the following molecules?
1. COc1ccc(/C=C2\SC(c3ccc(N)cc3)=NC2=O)cc1
2. CCCOc1ccc(/C=C2\SC(N3CCCCCC3)=NC2=O)cc1
3. COc1ccc(/C=C2\SC(c3ccc(C)cc3)=NC2=O)c(OC)c1
4. COc1cc(Cl)cc(/C=C2\SC(c3ccccc3)=NC2=O)c1O
5. CC(C)(C)c1ccc(/C=C2\SC(c3ccccc3)=NC2=O)cc1
6. O=C1N=C(c2ccc(Cl)cc2)S/C1=C\c1ccc(O)cc1
7. COc1cccc(/C=C2\SC(c3ccccc3)=NC2=O)c1O

Found:
[630, 14000, 980, 300, 300, 110, 540]

###

Could you please report measured IC50 for the items listed next?
# TARGET: Polyunsaturated fatty acid 5-lipoxygenase (Homo sapiens, UniProt P09917)
# Sequence (P09917 whole entry): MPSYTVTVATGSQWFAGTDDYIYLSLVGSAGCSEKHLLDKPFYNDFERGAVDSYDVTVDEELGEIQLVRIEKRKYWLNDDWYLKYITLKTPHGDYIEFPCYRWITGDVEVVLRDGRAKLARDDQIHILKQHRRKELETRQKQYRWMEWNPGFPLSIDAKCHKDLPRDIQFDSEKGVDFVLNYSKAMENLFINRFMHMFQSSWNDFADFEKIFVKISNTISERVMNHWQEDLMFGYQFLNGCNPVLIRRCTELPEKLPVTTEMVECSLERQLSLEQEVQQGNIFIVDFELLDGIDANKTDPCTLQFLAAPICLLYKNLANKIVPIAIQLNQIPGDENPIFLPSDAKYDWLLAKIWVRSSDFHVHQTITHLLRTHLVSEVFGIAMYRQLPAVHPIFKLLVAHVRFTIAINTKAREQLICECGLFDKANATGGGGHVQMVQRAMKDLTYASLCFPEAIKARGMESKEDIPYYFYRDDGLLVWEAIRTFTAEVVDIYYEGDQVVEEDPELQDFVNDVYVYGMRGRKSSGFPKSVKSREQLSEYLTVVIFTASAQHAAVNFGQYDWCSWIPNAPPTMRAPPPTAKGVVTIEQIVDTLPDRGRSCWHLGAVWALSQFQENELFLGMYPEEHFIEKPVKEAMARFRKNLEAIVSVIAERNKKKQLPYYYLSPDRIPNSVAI
# ASSAY PROCEDURE: Inhibition of 5-lipoxygenase in human polymorphonuclear leukocytes assessed as inhibition of LTB4 production preincubated for 15 mins measured after 10 mins by HPLC method
# Type: cell-based
# CONDITION DESCRIPTION: pooled result: one value given for 2 cell lines, strains, targets or settings
Give bare numbers, in µM.

COc1cc(/C=C2\SC(c3ccccc3)=NC2=O)cc(Cl)c1O : 9.5

Batch: IC50 for all items listed.
1. O=C1/C(=C/C=C/c2ccco2)S/C(=N\c2ccccc2)N1c1ccccc1
2. COc1ccc(/C=C2\SC(c3ccc(OC)cc3)=NC2=O)cc1
3. COC(=O)COc1ccc(/C=C2\SC(c3ccc(C)cc3)=NC2=O)cc1

Found:
1. 30
2. 0.32
3. 2.11

###

# TARGET: Polyunsaturated fatty acid 5-lipoxygenase (Homo sapiens)
# ASSAY PROCEDURE: Inhibition of 5-lipoxygenase in S100 supernatant assessed as inhibition of (5(S)-hydroperoxy-6-trans-8,11,14-cis-eicosatetraenoic acid production preincubated for 15 mins measured after 10 mins by HPLC method
OBSERVATION TYPE: IC50

Illustrative cases are given below, each with its answer.
Cc1ccc(/C=C2\SC(Nc3ccc4ccccc4c3)=NC2=O)cc1 : > 30 µM
O=C1N=C(Nc2ccccc2)S/C1=C\c1ccccc1 : > 30 µM
COc1cc(/C=C2\SC(c3ccccc3)=NC2=O)cc(Cl)c1O : 3 µM

In the following, a different molecule is considered.
Lookup: Looking for the measured IC50 of `O=C1/C(=C/C=C/c2ccco2)S/C(=N\c2ccccc2)N1c1ccccc1` , can you help?
Found: > 30 µM

###

For each entry below, report its pIC50 value.
# TARGET: Polyunsaturated fatty acid 5-lipoxygenase (Homo sapiens, UniProt P09917)
# ASSAY PROCEDURE: Inhibition of 5-lipoxygenase in S100 supernatant assessed as inhibition of LTB4 production preincubated for 15 mins measured after 10 mins by HPLC method
Numbers only, as −log10 of the molar value.

Solved cases below.
Cc1ccc(C2=NC(=O)/C(=C/c3ccccc3)S2)cc1 : 6.46
CCCOc1ccc(/C=C2\SC(N3CCCCCC3)=NC2=O)cc1 : 4.85
COC(=O)COc1ccc(C2=NC(=O)/C(=C/c3ccc(OC)cc3)S2)cc1 : 6.24
COc1cc(/C=C2\SC(c3ccccc3)=NC2=O)cc([N+](=O)[O-])c1O : 5.52

Need pIC50 for each of these compounds.
1. COc1ccc(/C=C2\SC(c3ccc(C(C)=O)cc3)=NC2=O)cc1
2. Cc1ccc(C2=NC(=O)/C(=C/C=C/c3ccccc3)S2)cc1

Found:
6.96
6.64
